Molecular target: Recombinant human Lp-PLA2 (Homo sapiens, UniProt Q13093)
Sequence (Q13093 22-441): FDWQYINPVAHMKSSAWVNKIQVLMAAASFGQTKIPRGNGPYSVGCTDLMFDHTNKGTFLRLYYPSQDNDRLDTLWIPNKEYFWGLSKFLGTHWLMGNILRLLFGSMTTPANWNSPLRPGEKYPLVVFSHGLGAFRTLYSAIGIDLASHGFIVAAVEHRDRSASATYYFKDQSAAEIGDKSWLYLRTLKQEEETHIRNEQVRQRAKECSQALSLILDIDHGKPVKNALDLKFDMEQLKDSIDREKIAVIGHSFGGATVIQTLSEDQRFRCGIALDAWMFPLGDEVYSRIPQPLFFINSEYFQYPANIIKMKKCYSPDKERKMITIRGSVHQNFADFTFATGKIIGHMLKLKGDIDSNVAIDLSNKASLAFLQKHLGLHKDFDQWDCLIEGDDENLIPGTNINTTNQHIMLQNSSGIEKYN
Assay: Recombinant human Lp-PLA2 (rhLp-PLA2) assay (PED6 assay)
Type: biochemical
Details: PED6 substrate; recombinant human Lp-PLA2 enzyme at 4 nM or 110 pM; 30 min pre-incubation; fluorescence ex 480/em 540; read-out: rhLp-PLA2 (pIC50) (converted)
result_type: IC50 (nM)
Numbers only, in nM.

Record IC50 for all entries; do not skip any.
1. Cc1ccc(Oc2c(F)cc(COc3nc(=O)n4c5c3OCCN5CCC4)cc2F)cn1 [Compound 17]
2. O=c1nc(OCc2cc(F)c(Oc3ccnc(C(F)(F)F)c3)c(F)c2)c2c3n1CCN3CCO2 [Compound 4]
3. Cc1cc(Oc2c(F)cc(COc3nc(=O)n4c5c3OCCN5CC4)cc2F)ccn1 [Compound 6]
4. Cc1ccc(Oc2c(F)cc(COc3nc(=O)n4c5c3OCCN5CC4)cc2F)cn1 [Compound 7]
5. Cc1ncc(Oc2c(F)cc(COc3nc(=O)n4c5c3OCCN5CC4)cc2F)cn1 [Compound 8]
6. O=c1nc(OCc2cc(F)c(Oc3ccc(C(F)(F)F)cc3)c(F)c2)c2c3n1CCN3CCO2 [Compound 9]

Key:
1. 0.0501
2. 0.126
3. 0.158
4. 0.251
5. 1
6. 0.158

Record IC50 for all entries; do not skip any.
1. O=c1nc(OCc2cc(F)c(Oc3ccc(C(F)(F)F)c(Cl)c3)c(F)c2)c2c3n1CCN3CCO2 [Compound 11]
2. O=c1nc(OCc2cccc(F)c2F)c2c3n1CCN3CCO2 [Compound 2]
3. O=c1nc(OCc2cc(F)c(Oc3ccnc(C(F)(F)F)c3)c(F)c2)c2c3n1CCCN3CCO2 [Compound 15]
4. O=c1nc(OCc2cc(F)c(F)cc2F)c2c3n1CCN3CCO2 [Compound 1]
5. O=c1nc(OCc2cc(F)c(Oc3ccc(C(F)(F)F)nc3)c(F)c2)c2c3n1CCCN3CCO2 [Compound 16]

Key:
0.1
10
0.0631
15.8
0.0794

###

Biological target: Lp-PLA2 enzyme in human plasma (Homo sapiens, UniProt Q13093)
Construct: from tissue; host or cells: pooled (mixed) human plasma
Experiment: Human plasma Lp-PLA2 assay (Thio-PAF assay)
Type: biochemical
Conditions: mixed human plasma; 2-thio-PAF substrate with CPM; 30 min pre-incubation; fluorescence ex 380/em 485; read-out: Thio-PAF (pIC50) (converted)
Protocol: (2) Human Plasma Lp-PLA2 Assay (Also Known as Thio-PAF Assay) The human plasma assay was conducted using the sulphatide analog of PAF (phosphatidylcholine), which is hydrolyzed to produce phospholipids containing free sulfhydryl groups, subjected to Michael addition with CPM to generate fluorescence-enhancing maleimide. Continuous quantitative analysis of thiol could be conducted by detecting the fluorescence intensity. […]
result_type: IC50
Put down the number, then write its unit next to it.

Guide cases for IC50, answers given:
cpd_smiles=Cc1ccc(Oc2c(F)cc(COc3nc(=O)n4c5c3OCCN5CCC4)cc2F)cn1 result_type=IC50 result="0.00794 µM"
cpd_smiles=O=c1nc(OCc2cc(F)c(Oc3ccc(C(F)(F)F)cc3)c(F)c2)c2c3n1CCN3CCO2 result_type=IC50 result="0.01 µM"
cpd_smiles=O=c1nc(OCc2cc(F)c(Oc3ccc(C(F)(F)F)c(Cl)c3)c(F)c2)c2c3n1CCN3CCO2 result_type=IC50 result="0.01 µM"
cpd_smiles=O=c1nc(OCc2cc(F)c(Oc3cccc(OC(F)(F)F)c3)c(F)c2)c2c3n1CCN3CCO2 result_type=IC50 result="0.0158 µM"

Record IC50 for all entries; do not skip any.
1. O=c1nc(OCc2cc(F)c(Oc3ccc(C(F)(F)F)nc3)c(F)c2)c2c3n1CCN3CCO2
2. Cc1ncc(Oc2c(F)cc(COc3nc(=O)n4c5c3OCCN5CC4)cc2F)cn1
3. O=c1nc(OCc2cc(F)c(Oc3ccc(Cl)c(C(F)(F)F)c3)c(F)c2)c2c3n1CCN3CCO2
4. O=c1nc(OCc2cc(F)c(F)c(F)c2)c2c3n1CCN3CCO2
5. O=c1nc(OCc2cc(F)c(F)cc2F)c2c3n1CCN3CCO2
6. O=c1nc(OCc2cc(F)c(F)c(F)c2)c2c3n1CCCN3CCO2
7. Cc1cc(Oc2c(F)cc(COc3nc(=O)n4c5c3OCCN5CC4)cc2F)ccn1

Key:
["0.02 µM", "0.0398 µM", "0.0126 µM", "0.0501 µM", "0.316 µM", "0.0631 µM", "0.0158 µM"]
